- Test system: HOP-62
- test: NCI tumour cell line growth inhibition, 48 h
Active and inactive are the calls of the source. Cut-off read from the data, not from the text of the source: active = GI50 up to about 1.1 µM and inactive = higher.
# output must be one of active, inactive

- CNc1ncnc2c1cnn2CCCCO: inactive
- C=CCc1cccc(/C=N\N/C(N)=N/O)c1O: inactive

Q: In this assay, the call recorded for O=c1[nH]nc(-c2ccccc2)c2[nH]c3c4ccccc4ccc3c12 was what?
Ans: inactive

Q: Same for COC(=O)C(=O)C(C(=O)C=C(C)C)C(=O)C(=O)Nc1nc2ccc([N+](=O)[O-])cc2s1 (stereo not drawn)
Ans: inactive

Q: Same for COc1ccc(C[C@@H](C(=O)O[C@H](C)[C@H](NC(=O)[C@@H](CC(C)C)N(C)C(=O)C2CCCN2C(=O)[C@H](C)O)C(=O)N2CCCCNC(=O)[C@@H](C)C(=O)[C@H](C(C)C)OC(=O)C[C@H](O)[C@H]2CC(C)C)N(C)C(C)=O)cc1 (stereo partly drawn)
Ans: inactive

Q: Same for COC(=O)[C@@H]1C=C[C@H](NC(C)=O)C1
Ans: inactive

Q: Same for CC1CC/C(=C\c2ccc(Cl)cc2)C2OC(N)=C(C#N)C(c3ccc(Cl)cc3)=C12 (stereo not drawn)
Ans: inactive

Q: Same for C=C=C(C(=O)OC)[S+]([O-])c1ccc([N+](=O)[O-])cc1[N+](=O)[O-] (stereo not drawn)
Ans: inactive

Q: Same for CCOC(=O)C1=C(C)N(Cc2ccccc2)C2(O)C(OC)CC(=O)C3C(=O)N(c4ccccc4)C(=O)C132 (stereo not drawn)
Ans: inactive

Q: Same for C[C@@H]1CC[C@@H](C)[C@](C)(CCc2ccoc2)C/C=C\C=C/1C(=O)O
Ans: inactive

Q: Same for CC1(C)/C(=N\Nc2ccc([N+](=O)[O-])cc2[N+](=O)[O-])C2CCC1C2 (stereo not drawn)
Ans: inactive

Q: Same for C[C@@H]1C(=O)CC2(O)[C@@]13C[C@@H](OC(=O)[C@@H]3O)[C@@H](C)[C@@]21COC1=O (stereo partly drawn)
Ans: inactive

Q: Same for OCCCNc1ccnc2cc(Cl)ccc12
Ans: inactive

Q: Same for CN(O)C(=O)Cc1ccc(OCc2cccc(Cl)c2)cc1
Ans: inactive

----------
- Test system: NCI/ADR-RES
- test: NCI tumour cell line growth inhibition, 48 h
Activity calls are given as the source filed them. Rule as the data show it: active = GI50 up to about 1.1 µM and inactive = higher.
# output must be one of class 1 for active, class 0 for inactive

* CCc1cccc(C(C)(C)C)c1NC(=S)N/C=C(/C#N)C(N)=O | class 0
* CN[C@@H](Cc1cccc2ccccc12)C(=O)N[C@@H](CC(C)C)B(O)O | class 1
* O=C1C=CC(=O)c2c1ccc1c3ccccc3n(-c3ccccc3[N+](=O)[O-])c21 | class 0
* COC(=O)[C@@H]1C=C[C@H](NC(C)=O)C1 | class 0

Q: In this assay, the call recorded for N#CC(c1ccccc1)N(CCc1ccccc1)C(=O)c1ccc(C(=O)N(CCc2ccccc2)C(C#N)c2ccccc2)cc1 (configuration not stated) was what?
Ans: class 0

Q: Same for CCOC(=O)CCc1c(C(=O)OCC)[nH]c(/C=C2\NC(=O)C(C)=C2CC)c1C
Ans: class 0

Q: Same for CCN(CC)CCNc1ccc2ncn3c4cc(OC)c(OC)c(O)c4c(=O)c1c23
Ans: class 0

Q: Same for O=c1[nH]c2ccccc2c2nc3ccccc3n12
Ans: class 0

Q: Same for Cc1ccc(/N=N/NCCCCN)cc1
Ans: class 0

Q: Same for Cc1cc(C23OC4COC(C)(C)OC4C2OC(C)(C)O3)nc2ccccc12 (configuration not stated)
Ans: class 0

----------
- Tested on: UACC-62
- test: NCI tumour cell line growth inhibition, 48 h
Calls of active or inactive are those of the source. Cut-off read from the data, not from the text of the source: active = GI50 up to about 1.1 µM and inactive = higher.
# output must be one of active, inactive

// known answers, use as guide
• O=[N+]([O-])c1cccc(-c2csc(N/N=C3\NC/C(=C/c4ccc5c(c4)OCO5)S3)n2)c1 = inactive
• NCCCNCCCNCCCN = inactive
• COC(=O)/C=C\n1c(C)cc(=O)[nH]c1=O = inactive
• O=C1c2ccccc2CC12Cc1ccc3c(c1C2)CCC3 (stereo not given) = inactive
• O=C1/C(=C/c2ccc3c(c2)OCO3)SC2C=Nc3ccccc3N12 (stereo not given) = inactive

Q: In this assay, the call recorded for CC1=C[C@H](O)[C@@]2(C)[C@@H]([C@@H]1C)[C@H]1CC[C@@H]3[C@@]4(C)CC[C@H](O)C(C)(C)[C@@H]4CC[C@@]3(C)[C@]1(C)C[C@@H]2O was what?
Ans: inactive

Q: Same for CC1(CO)OC(n2cc(C(=O)NC(=O)OCc3ccccc3)c(=O)[nH]c2=O)CC1O (stereo not given)
Ans: inactive

Q: Same for C[C@@H]1CC[C@@H](C)[C@](C)(CCc2ccoc2)C/C=C\C=C/1C(=O)O
Ans: inactive

Q: Same for O=C(Nc1ccccn1)/C(=C\C(=O)c1ccc(Cl)cc1)Nc1ccccc1
Ans: inactive

Q: Same for CCN(CC)CCn1c2ccccc2c(=O)c2c(O)ccc(O)c21
Ans: inactive

Q: Same for COc1ccc(Cc2c(-c3ccc(C)cc3)n[nH]c(=O)c2C2C(=O)N(c3ccccc3)N=C2c2ccccc2)cc1 (stereo not given)
Ans: inactive

Q: Same for CCc1ccc2c(c1)CC1(C2)Cc2cc3c(cc2C1)C(=O)CC3 (stereo not given)
Ans: inactive

----------
Some compounds, each annotated with its measured GI50.
- Test system: SNB-19
- test: NCI tumour cell line growth inhibition, 48 h
Calls of active or inactive are those of the source. Cut-off read from the data, not from the text of the source: active = GI50 up to about 1.1 µM and inactive = higher.

Record excerpt, results attached:
* CC1CC(C)C(=O)C(C(=O)CC2CC(=O)NC2=O)C1 (stereo unspecified) | > 100 µM (inactive)
* O=C1N/C(=N/N=C/C(O)C(O)C(O)CO)N/C1=C\c1c[nH]c2ccccc12 (stereo unspecified) | 1.93 µM (inactive)
* COC(=O)C1=C(C)N2CCOC2(C)C(C(=O)OC)C1c1ccc[nH]1 (stereo unspecified) | > 100 µM (inactive)
* CC1=C(C)[C@@]2(C)O[C@@]2(C)O[C@@]2(C)O[C@@]12C | > 100 µM (inactive)
* CC#CS(=O)(=O)c1ccccc1 | 14.2 µM (inactive)

Next:
Q: Look up GI50: O=C(O/N=C1/CCCC/C1=C\c1ccccc1)c1ccc(Cl)c(Cl)c1
Ans: 69.7 µM (inactive)

----------
- System: Hs-578T
- test: NCI tumour cell line growth inhibition, 48 h
The source made the active and inactive calls. Cut-off read from the data, not from the text of the source: active = GI50 up to about 1.1 µM and inactive = higher.
observable: GI50

Q: Requested read-out GI50, target or system Hs-578T, entry COC(=O)c1ccccc1/N=C(/NC1CCCCCC1)NS(=O)(=O)c1ccc(C)cc1
Ans: > 100 µM (inactive)

Q: Same for Cc1cc(O)c(C=O)c2c1C(=O)Oc1c(CO)c(O)c3c(c1O2)C(O)OC3=O (centres undefined) [SLAZINIC ACID]
Ans: 31.6 µM (inactive)

Q: Same for C[N+](C)=C/C=C(\Cl)c1ccc2ccccc2c1
Ans: 32.4 µM (inactive)

----------
- Test system: A498
- test: NCI tumour cell line growth inhibition, 48 h
The source made the active and inactive calls. Cut-off read from the data, not from the text of the source: active = GI50 up to about 1.1 µM and inactive = higher.
# output must be one of active, inactive

// known answers, use as guide
* COC1=C(C)C(=O)C2=C(C1=O)C(CO)N1C(C#N)C3CC4C(C1C2N1CCOC41)N3C (stereo not given) | active
* CC(c1ccccc1)n1cncc1C(=O)NN1CCN(C)CC1 (stereo not given) | inactive
* CN(C)CCNC(=O)c1cccc2c1nc(-c1ccccn1)c1ccccc12 | inactive
* COc1ccc2c3c1O[C@]1(C)C34CCN(C)C(C2)C42C=C[C@@]1(OC)c1c(O)ccc(O)c12 | inactive
* Cc1c(C#N)c(N)n(C2OC(CO)C(O)C(O)C2O)c(=S)c1C#N (stereo not given) | inactive

Q: In this assay, the call recorded for CSc1ccn(C2CC(F)C(CO)O2)c(=O)n1 (stereo not given) was what?
Ans: inactive

----------
- System: SR
- test: NCI tumour cell line growth inhibition, 48 h
Active and inactive are the calls of the source. Cut-off read from the data, not from the text of the source: active = GI50 up to about 1.1 µM and inactive = higher.
# output must be one of active, inactive

// known answers, use as guide
• O=C(O/N=C1/CCC/C1=C\c1ccccc1)c1ccc(Cl)c(Cl)c1 = inactive
• Cc1cc(C23OC4COC(C)(C)OC4C2OC(C)(C)O3)nc2ccccc12 (stereo not given) = inactive
• CC(C)(CN1CCCCC1)C(=O)CC(SCCS(=O)(=O)O)c1ccccc1 (stereo not given) = active
• O=C(O)C1CC2(C1)CC(C(=O)O)C2 (stereo not given) = inactive

Here is another molecule to look at.
Q: In this assay, the call recorded for O=C1CC2CCC(C1)[S+]2[O-] (stereo not given) was what?
Ans: inactive

----------
- Tested on: MDA-MB-231
- test: NCI tumour cell line growth inhibition, 48 h
Calls of active or inactive are those of the source. Rule as the data show it: active = GI50 up to about 1.1 µM and inactive = higher.
Some molecules, each annotated with its measured GI50.

Record excerpt, results attached:
* COC(=O)[C@@H]1C=C[C@H](NC(C)=O)C1 | > 100 µM (inactive)
* COc1ccc2c(c1)CCc1c-2n(CCN2CCOCC2)c2ccc(OC)cc12 | > 100 µM (inactive)
* O=[N+]([O-])c1cc(Cl)cnc1Br | 3.45 µM (inactive)

Q: Look up GI50: COc1ccc(NC(=S)NC(=O)c2ccc3c(c2)Sc2ccccc2O3)c([N+](=O)[O-])c1
Ans: 22.9 µM (inactive)

Q: Same for CCCCn1c2c(n(CCCC)c1=S)-c1c(n(CCCC)c(=S)n1CCCC)S[Se][Se]S2
Ans: 2.33 µM (inactive)

Q: Same for C=C1C2CCC3C4(C)CCCC(C)(C(=O)O)C4CCC3(C2)C1OC(=O)/C(C)=C/C (configuration not stated)
Ans: 20.9 µM (inactive)

Q: Same for Cc1ccc(S(=O)(=O)N/N=C2\CCC3(O)CC2(C)CCC2C3CC2(C)C)cc1 (configuration not stated)
Ans: 47.8 µM (inactive)

Q: Same for CCN(CC)CCNc1ccc2ncn3c4cc(OC)c(OC)c(O)c4c(=O)c1c23
Ans: 5.93 µM (inactive)
